Source listed as patent US20140309210A1.

Task for the reader: assign each of the following molecules its reported log10(Ki).
Molecular target: purified ITK (Invitrogen PV3875) (Homo sapiens)
Construct: purchased Invitrogen PV3875
Sequence (Q08881 whole entry): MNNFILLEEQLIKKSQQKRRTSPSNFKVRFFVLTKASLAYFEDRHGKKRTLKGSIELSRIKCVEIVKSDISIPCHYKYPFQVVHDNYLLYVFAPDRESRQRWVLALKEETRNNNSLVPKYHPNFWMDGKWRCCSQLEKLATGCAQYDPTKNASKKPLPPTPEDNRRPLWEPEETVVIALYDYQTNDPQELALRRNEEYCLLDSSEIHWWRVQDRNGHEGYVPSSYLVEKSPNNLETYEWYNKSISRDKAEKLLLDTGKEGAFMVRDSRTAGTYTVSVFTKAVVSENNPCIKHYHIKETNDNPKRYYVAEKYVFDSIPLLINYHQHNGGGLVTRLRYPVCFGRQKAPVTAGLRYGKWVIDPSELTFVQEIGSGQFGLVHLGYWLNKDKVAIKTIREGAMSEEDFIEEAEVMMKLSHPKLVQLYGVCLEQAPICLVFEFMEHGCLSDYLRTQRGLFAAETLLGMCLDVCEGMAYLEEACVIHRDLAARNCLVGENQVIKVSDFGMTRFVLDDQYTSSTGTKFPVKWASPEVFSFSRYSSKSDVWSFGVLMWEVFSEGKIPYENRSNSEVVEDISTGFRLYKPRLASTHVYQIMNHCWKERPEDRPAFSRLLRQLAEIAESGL
Assay: ITK peptide phosphorylation assay (Caliper LabChip or LCMS)
Assay type: biochemical
Conditions: Table 1, Examples 141-279
// do not treat as linear: log10 of Ki, unit nM

Exercise: Recall and state the measured log10(Ki) for CN1CCC(Cn2cc(NC(=O)c3n[nH]c4cc(-c5cn[nH]c5)ccc34)cn2)CC1 .
Solution: 0.75

Exercise: Recall and state the measured log10(Ki) for O=C(Nc1cnn(CC2CC2)c1)c1n[nH]c2cc(-c3cn[nH]c3)ccc12 .
Solution: 0.73

Exercise: Recall and state the measured log10(Ki) for Cn1nccc1-c1ccc2c(C(=O)Nc3cnn(Cc4cccc(C#N)c4)c3)n[nH]c2c1 .
Solution: 2.55

Exercise: Recall and state the measured log10(Ki) for CC(C)CN1CCOC(Cn2cc(NC(=O)c3n[nH]c4cc(-c5cn[nH]c5)ccc34)cn2)C1 (stereo not shown) .
Solution: 0.55

Exercise: Recall and state the measured log10(Ki) for CC[C@H](c1cscn1)n1cc(NC(=O)c2n[nH]c3cc(-c4cn[nH]c4)ccc23)cn1 .
Solution: 0.15

Exercise: Recall and state the measured log10(Ki) for CN(CCC(c1ccccc1)n1cc(NC(=O)c2n[nH]c3ccccc23)cn1)CC(F)(F)F (stereo not shown) [Example 269] .
Solution: 2.02

Exercise: Recall and state the measured log10(Ki) for O=C(Nc1cnn(Cc2ccccc2)c1)c1n[nH]c2cc(-c3cnccn3)ccc12 .
Solution: 1.58

Exercise: Recall and state the measured log10(Ki) for COCCN(C)CC(c1cccnc1)n1cc(NC(=O)c2n[nH]c3cc(-c4cncc(OC)c4)ccc23)cn1 (stereo not shown) [Example 229] .
Solution: 1.51

Exercise: Recall and state the measured log10(Ki) for N#Cc1cccc(Cn2cc(NC(=O)c3n[nH]c4cc(-c5cn[nH]c5)c(F)cc34)cn2)c1 .
Solution: 0.89

Exercise: Recall and state the measured log10(Ki) for N#Cc1cccc(Cn2cc(NC(=O)c3n[nH]c4cc(-c5cccnc5)c(F)cc34)cn2)c1 .
Solution: 1.76

Exercise: Recall and state the measured log10(Ki) for O=C(Nc1cnn(C(CO)c2ccccc2)c1)c1n[nH]c2ccccc12 (stereo not shown) [Example 256] .
Solution: 2.16

Exercise: Recall and state the measured log10(Ki) for O=C(Nc1cnn(C(CCN2CCOCC2)c2ccccc2)c1)c1n[nH]c2cc(-c3cn[nH]c3)ccc12 (stereo not shown) .
Solution: -0.55

Exercise: Recall and state the measured log10(Ki) for O=C(Nc1cnn([C@@H](CO)c2cscn2)c1)c1n[nH]c2cc(-c3cn[nH]c3)ccc12 .
Solution: 0.88

Exercise: Recall and state the measured log10(Ki) for CN(C)CCC(c1ccccc1)n1cc(NC(=O)c2n[nH]c3cc(-c4cn[nH]c4)cnc23)cn1 (stereo not shown) [Example 278] .
Solution: 0.11

Exercise: Recall and state the measured log10(Ki) for O=C(Nc1cnn(Cc2csc(N3CCC(O)C3)n2)c1)c1n[nH]c2cc(-c3cn[nH]c3)ccc12 (stereo not shown) .
Solution: 0.59

Exercise: Recall and state the measured log10(Ki) for CN(C)CCC(c1cccc(Cl)c1)n1cc(NC(=O)c2n[nH]c3cc(-c4cn[nH]c4)ccc23)cn1 (stereo not shown) [Example 247] .
Solution: -0.90
